These measurements were taken from patent US20120316325.

pKd by entry:
# Assayed System: pfLDH (Plasmodium falciparum lactate dehydrogenase) (Plasmodium falciparum, UniProt Q27743 Q27743:1-316)
# Sequence (Q27743 whole entry, one chain of several): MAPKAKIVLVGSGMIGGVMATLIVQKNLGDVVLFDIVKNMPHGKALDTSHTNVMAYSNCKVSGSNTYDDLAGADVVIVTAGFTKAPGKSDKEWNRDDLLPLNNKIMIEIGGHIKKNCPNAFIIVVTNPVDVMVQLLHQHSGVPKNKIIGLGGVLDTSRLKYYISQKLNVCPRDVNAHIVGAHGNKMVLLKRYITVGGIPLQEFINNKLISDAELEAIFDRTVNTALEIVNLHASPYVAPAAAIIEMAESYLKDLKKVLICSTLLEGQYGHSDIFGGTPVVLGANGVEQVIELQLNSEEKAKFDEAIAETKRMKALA
# Assay Summary: fluorescence bead assay, same buffer; binding also seen by EMSA
# Condition Summary: chain copies: 4 inferred; label: FAM (fluorescence assay); Loop 1, G-C rich stem, Loop 2 (Mfold)
pKd: −log10 of the molar value.
Endpoint: pKd

Binder: GAACTCATTGGCTGGAGGCGGCAGTACCGCTTGAGTTC (ssDNA) [Aptamer #2]
Recorded Result: 7.30
//
Binder: GTTCGATTGGATTGTGCCGGAAGTGCTGGCTCGAAC (ssDNA) [Aptamer #1]
Recorded Result: 7.41
